Assay: basal CRE-LacZ reporter activity in PC12 – cell-based, unstimulated, primary screen (AID 1145)
Conditions: no forskolin, luminescence, 4.5 h, higher = more signal, called active from +8 up or from −8 down
I would appreciate it if you labelled entries criterion met when z-score is 0.4 or higher, otherwise criterion not met.

# Compound, Class assignment
measured = [
    ("CC(C)N1CC=CC23O[C@@H]4C=CCOC(=O)[C@@H]4[C@H]2C(=O)N(CCCCCO)[C@@H]3C1=O (stereo partly drawn)", "criterion not met"),
    ("COCCOC(=O)N1C(=O)[C@@]2(c3cc(C#CCCO)ccc31)[C@H](c1ccc(OCCO)cc1)N1[C@H](c3ccccc3)[C@H](c3ccccc3)OC(=O)[C@H]1[C@@H]2C(N)=O", "criterion not met"),
    ("NC(=O)[C@@H]1[C@H]2C(=O)O[C@H](c3ccccc3)[C@H](c3ccccc3)N2[C@H](c2ccc(O)cc2)[C@@]12C(=O)Nc1ccc(C#CC3=CCCCC3)cc12", "criterion met"),
    ("O=C1OCCC/C=C\\[C@H]2OC34C=CCN(c5ccc6ccccc6c5)C(=O)[C@H]3N(CCCCCO)C(=O)[C@@H]4C12 (stereo partly drawn)", "criterion met"),
    ("[N-]=[N+]=NCc1ccccc1[C@@H]1OC(c2ccc(OCCCO)cc2)=N[C@]1(CCS(=O)(=O)c1ccccc1)C(=O)N1CCOCC1", "criterion met"),
    ("COC(=O)C(CC#Cc1ccc2c(c1)[C@]1(C(=O)N2)[C@H](c2ccccc2OCCO)N2[C@H](c3ccccc3)[C@H](c3ccccc3)OC(=O)[C@H]2[C@@H]1C(=O)O)C(=O)OC", "criterion not met"),
    ("[N-]=[N+]=Nc1ccccc1C[C@@]1(C(=O)N2CCCCC2)N=C(c2ccc(OCCCO)cc2)O[C@@H]1c1ccccc1N=[N+]=[N-]", "criterion met"),
    ("[N-]=[N+]=Nc1ccccc1[C@H]1OC(c2ccc(OCCCO)cc2)=N[C@@]1(CCS(=O)(=O)c1ccccc1)C(=O)NCc1ccccc1", "criterion met"),
    ("COc1ccc([Si](C)(C)[C@@H]2[C@@H](CC(=O)N3CCC[C@H]3CO)O[C@]3(C(=O)N(Cc4cccc(I)c4)c4ccccc43)[C@H]2C)cc1", "criterion not met"),
    ("O=C1OCCC=C[C@H]2OC34C=CCN(c5ccc(Cl)cc5)C(=O)[C@H]3N(CCCO)C(=O)[C@@H]4C12 (stereo partly drawn)", "criterion not met"),
    ("O=C1OCCC=C[C@H]2OC34C=CCN(CCN5CCOCC5)C(=O)[C@H]3N(CCCCCO)C(=O)[C@@H]4C12 (stereo partly drawn)", "criterion met"),
    ("O=C1C2C=CC(C(O)C=Cc3ccc([N+](=O)[O-])cc3)N(n3cnnc3)C2C(=O)N1Cc1ccccc1 (stereo not drawn)", "criterion not met"),
    ("O=C1OCC=C[C@H]2OC34C=CCN(Cn5nnc6ccccc65)C(=O)[C@H]3N(CCCCCO)C(=O)[C@@H]4[C@@H]12 (stereo partly drawn)", "criterion not met"),
    ("[N-]=[N+]=Nc1ccccc1C[C@@]1(C(=O)N2CCCCC2)N=C(c2ccc(OCCCO)cc2)O[C@@H]1c1ccccc1", "criterion met"),
    ("O=C(NC1CC1)[C@@H]1c2ccccc2C(=O)N(Cc2cc(F)cc(C(F)(F)F)c2)[C@H]1c1ccc(CO)cc1", "criterion not met"),
    ("COCCCNC(=O)[C@@]1(Cc2ccccc2CN=[N+]=[N-])N=C(c2ccc(OCCCO)cc2)O[C@H]1c1ccccc1CN=[N+]=[N-]", "criterion met"),
    ("COC(=O)[C@H](Cc1ccccc1)N[C@H](/C=C/C1CC1)[C@@H](O)Cc1ccccc1", "criterion met"),
    ("COc1ccc(CCNC(=O)[C@@]2(C)c3ccccc3C(=O)N(c3ccc(C)cn3)[C@H]2c2ccc(CO)cc2)cc1", "criterion not met"),
    ("COc1ccc(C(O)C2C=CC3C(=O)N(C)C(=O)C3N2N(c2ccccc2)c2ccccc2)c2ccccc12 (stereo not drawn)", "criterion not met"),
    ("O=C(CS)NCCCCCNC(=O)[C@H]1C[C@H]2C(=O)NCC(=O)N2[C@H]1c1ccc(O)cc1", "criterion not met"),
    ("CCCCN1CC=CC23O[C@@H]4C=CCOC(=O)[C@@H]4[C@H]2C(=O)N(CCCCCCO)[C@@H]3C1=O (stereo partly drawn)", "criterion not met"),
    ("CCCNC(=O)[C@@]1(Sc2ccc(C)cc2)CC(=O)N(Cc2ccccc2C(F)(F)F)[C@@H]1c1ccc(CO)cc1I", "criterion not met"),
]
